Where these numbers come from: PubChem BioAssay (EPA / NIEHS)

Test name: ATG_NRF2_ARE_CIS: Attagene CIS-FACTORIAL HepG2 Assay for human Nuclear Factor Erythroid 2 Related Factor 2 (NFR2) response to Antioxidant Response Elements (ARE) (AID 2282992)
Setup conditions: HepG2 Attagene ARE/NRF2 reporter, transcription factor activity; actives raise or lower the signal
Active and inactive are the calls of the source. The calls were made as follows: active = hit-call score of the fitted dose curve at least 0.9, where 1 is the maximum; inactive = score below 0.9.
Pick from 1 (active), -1 (inactive) when you respond.

Answered examples (3):
O=C(O)C(F)(OC(F)(F)C(F)(F)C(F)(F)F)C(F)(F)F (stereo not given)    -1
Nc1ccc(Sc2ccc(N)cc2)cc1    1
CCCCN(CCCC)N=O    -1

Enquiry: Per the assay record, what outcome was assigned to O=P1(N(CCCl)CCCl)NCCCO1 (stereo not given) ?
Return: -1

Enquiry: What is the recorded call for this compound in the test? CC(Cl)(Cl)C(=O)O
Return: -1

Enquiry: Just curious, what result did CCCCc1ccc(O)cc1 get here?
Return: 1

----------
Read-out: Cellular tumor antigen p53 (Homo sapiens)
Test name: LTEA_HepaRG_TP53: Life Technologies and Expression Analysis (LTEA) Assay for Tumor Protein P53 (TP53) using HepaRG (AID 2283537)
Setup conditions: mRNA level, 48 h; actives raise or lower the signal
Activity calls are given as the source filed them. The calls were made as follows: active = hit-call score of the fitted dose curve at least 0.9, where 1 is the maximum; inactive = score below 0.9.
The reply should name one outcome from true (1) (active), false (0) (inactive)

Would you please look over these solved cases?
CCOC(=O)c1ccccc1C(=O)OCC    false (0)
CC(C)(C)c1ccc(O)cc1    false (0)
Cc1ccc(O)cc1C    false (0)
CCN(CC)c1ccccc1    false (0)
c1ccc(OP(Oc2ccccc2)Oc2ccccc2)cc1    false (0)

Enquiry: Called result for O=P1(N(CCCl)CCCl)NCCCO1 (stereo not given)
Return: false (0)

Enquiry: Dear colleague, could you share the recorded outcome for Nc1ccc(Cl)cc1 when you have a moment?
Return: false (0)

Enquiry: What outcome does the record of this test show for ClC(Cl)(Cl)c1ccccc1 ?
Return: false (0)

Enquiry: What is the recorded call for this molecule in the test? O=C(O)C1C(C(=O)O)C2(Cl)C(Cl)=C(Cl)C1(Cl)C2(Cl)Cl (stereo not given)
Return: false (0)

Enquiry: Hey, what did the test say about [N-]=[N+]=[N-] ?
Return: true (1)

----------
Read-out: UDP glucuronosyltransferase (UGT1A1), UGT1A1 (gene 54658)
Test name: LTEA_HepaRG_UGT1A1: Life Technologies and Expression Analysis (LTEA) Assay for UDP glucuronosyltransferase (UGT1A1) using HepaRG (AID 2283538)
Setup conditions: mRNA level, 48 h; actives raise or lower the signal
Active and inactive are the calls of the source. Rule for the calls: active = hit-call score of the fitted dose curve at least 0.9, where 1 is the maximum; inactive = score below 0.9.
Parameter: AC50

Completed entries (count: 6):
Cc1ccc(N)cc1N    15000 nM (active)
Cc1ccc(O)cc1C    inactive
ClC1=C(Cl)C2(Cl)C3C(Cl)C(Cl)CC3C1(Cl)C2(Cl)Cl (configuration not stated)    2810 nM (active)
Cc1ccc([N+](=O)[O-])cc1C    inactive
CC(C)(C)OOC(C)(C)C    inactive
OCC1CO1 (configuration not stated)    inactive

Moving on to another compound below.
Enquiry: AC50 lookup needed for COCCOCCO , thanks.
Return: 1570 nM (active)

----------
Test name: ATG_DR4_LXR_CIS: Attagene CIS-FACTORIAL HepG2 Assay for human Liver X Receptor (LXR), DR4 submotif (AID 2282929)
Setup conditions: HepG2 Attagene DR4 cis-reporter, mRNA transcription; actives raise or lower the signal
Calls of active or inactive are those of the source. How the source made its calls: active means hit-call score of the fitted dose curve at least 0.9, where 1 is the maximum; inactive means score below 0.9.
The reply should name one outcome from y = active, n = inactive

Before answering, review these 5 worked examples.
O=c1ssc(Cl)c1Cl    y
Nc1ccc2ccccc2c1    n
CC(C)Nc1ccc(Nc2ccccc2)cc1    y
CCC(C)(C)c1ccc(O)cc1    n
CC(C)(C)c1ccccc1OP(=O)(Oc1ccccc1)Oc1ccccc1    y

# input for lookup
Enquiry: Tell me the recorded outcome of this test for ClC(Cl)(Cl)c1ccccc1 .
Return: n

----------
Test name: CCTE_Shafer_MEA_acute_burst_percentage_mean: CCTE's Neural Acute Assay for Percentage of Spikes in a Burst, Shafer Lab (AID 2284017)
The source made the active and inactive calls. How the source made its calls: active means hit-call score of the fitted dose curve at least 0.9, where 1 is the maximum; inactive means score below 0.9.
Respond using exactly one of the listed classes: active, inactive

CCOc1ccc(C(C)(C)COCc2cccc(Oc3ccccc3)c2)cc1    active
c1ccc2c(c1)Nc1ccccc1S2    active
CCCCC(CC)COP(=O)(Oc1ccccc1)Oc1ccccc1 (stereo not given)    active

Enquiry: Returns: the outcome recorded for O=C(O)C1C(C(=O)O)C2(Cl)C(Cl)=C(Cl)C1(Cl)C2(Cl)Cl (stereo not given) in this assay.
Return: inactive

----------
Test name: ATG_EGR_CIS: Attagene CIS-FACTORIAL HepG2 Assay for human Early Growth Response 1 (EGR1) (AID 2282938)
Setup conditions: HepG2 Attagene CIS-FACTORIAL EGR reporter mRNA; actives raise or lower the signal
Active and inactive are the calls of the source. The calls were made as follows: active = hit-call score of the fitted dose curve at least 0.9, where 1 is the maximum; inactive = score below 0.9.
Pick one: T (active), F (inactive)

Look over these answered cases.
CC(Cl)CN(C)C (stereo not given)    F
N#C/C=C/c1ccccc1    F
O=S1(=O)OCC2C(CO1)C1(Cl)C(Cl)=C(Cl)C2(Cl)C1(Cl)Cl (stereo not given)    T
c1cc2c3c(cccc3c1)CC2    F

Enquiry: // return assay outcome for CCCCOCCOP(=O)(OCCOCCCC)OCCOCCCC
Return: F

Enquiry: Hi team, can someone confirm the assay call for O=C(O)C(F)(F)C(F)(F)C(=O)O ?
Return: F

Enquiry: Dear all, I need the recorded test outcome for O=c1[nH]c2ccccc2c(=O)o1 , thank you.
Return: F

----------
Target: Estrogen receptor (Homo sapiens)
Test name: OT_ER_ERaERa_0480: Odyssey Thera (OT) 8-hour HEK293T Protein-Complementation Assay for Estrogen Receptor-alpha/-alpha Homodimer (AID 2283351);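 also: rise in fluorescence from reassembled reporter fragments on ERα LBD homodimer in nucleus or whole cell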
Inconclusive results are not listed. Calls of active or inactive are those of the source. Rule for the calls: active = hit-call score of the fitted dose curve at least 0.9, where 1 is the maximum; inconclusive = response in the unintended direction; inactive = score below 0.9.
The reply should name one outcome from TRUE = active, FALSE = inactive

CCCCOCC1CO1 (stereo unspecified)    FALSE

Enquiry: Which outcome was entered for the molecule ClC(Cl)(Cl)c1ccccc1 in this test?
Return: FALSE

----------
Test name: Tanguay_ZF_120hpf_MO24: Oregon State University Tanguay Lab 24 Hour Post-fertilization zebrafish Assay for Mortality (AID 2284389)
Calls of active or inactive are those of the source. The calls were made as follows: active = hit-call score of the fitted dose curve at least 0.9, where 1 is the maximum; inactive = score below 0.9.
Parameter: AC50

O=C(O)C(F)(OC(F)(F)C(F)(F)C(F)(F)F)C(F)(F)F (centres undefined)    inactive
OCC(F)(F)OC(F)(F)C(F)(F)OC(F)(F)C(F)(F)OC(F)(F)F    inactive
OCC(F)(F)OC(F)(F)C(F)(F)OC(F)(F)C(F)(F)OC(F)(F)CO    64.9 µM (active)
COC(=O)C(F)(F)C(F)(F)OC(F)(C(F)(F)F)C(F)(F)OC(F)=C(F)F (centres undefined)    21.4 µM (active)
O=C(O)C(F)(F)OC(F)(F)C(F)(F)OC(F)(F)C(=O)O    inactive

Enquiry: Query (compound): O=C(O)C(F)(F)OC(F)(F)C(F)(F)OC(F)(F)F ; field requested: AC50
Return: inactive

Enquiry: GET /values?readout=AC50&item= O=C(O)C(F)(F)C(F)(F)C(=O)O
Return: inactive

Enquiry: Report AC50 for CC(O)C(F)(F)C(F)(F)F (centres undefined) please.
Return: inactive

Enquiry: Recorded AC50 of O=S(=O)(F)C(F)(F)C(F)(F)C(F)(F)C(F)(F)C(F)(F)C(F)(F)C(F)(F)C(F)(F)F , please.
Return: inactive

----------
Target: Aryl hydrocarbon receptor (Homo sapiens) (UniProt P35869)
Sequence (P35869 whole entry, looked up): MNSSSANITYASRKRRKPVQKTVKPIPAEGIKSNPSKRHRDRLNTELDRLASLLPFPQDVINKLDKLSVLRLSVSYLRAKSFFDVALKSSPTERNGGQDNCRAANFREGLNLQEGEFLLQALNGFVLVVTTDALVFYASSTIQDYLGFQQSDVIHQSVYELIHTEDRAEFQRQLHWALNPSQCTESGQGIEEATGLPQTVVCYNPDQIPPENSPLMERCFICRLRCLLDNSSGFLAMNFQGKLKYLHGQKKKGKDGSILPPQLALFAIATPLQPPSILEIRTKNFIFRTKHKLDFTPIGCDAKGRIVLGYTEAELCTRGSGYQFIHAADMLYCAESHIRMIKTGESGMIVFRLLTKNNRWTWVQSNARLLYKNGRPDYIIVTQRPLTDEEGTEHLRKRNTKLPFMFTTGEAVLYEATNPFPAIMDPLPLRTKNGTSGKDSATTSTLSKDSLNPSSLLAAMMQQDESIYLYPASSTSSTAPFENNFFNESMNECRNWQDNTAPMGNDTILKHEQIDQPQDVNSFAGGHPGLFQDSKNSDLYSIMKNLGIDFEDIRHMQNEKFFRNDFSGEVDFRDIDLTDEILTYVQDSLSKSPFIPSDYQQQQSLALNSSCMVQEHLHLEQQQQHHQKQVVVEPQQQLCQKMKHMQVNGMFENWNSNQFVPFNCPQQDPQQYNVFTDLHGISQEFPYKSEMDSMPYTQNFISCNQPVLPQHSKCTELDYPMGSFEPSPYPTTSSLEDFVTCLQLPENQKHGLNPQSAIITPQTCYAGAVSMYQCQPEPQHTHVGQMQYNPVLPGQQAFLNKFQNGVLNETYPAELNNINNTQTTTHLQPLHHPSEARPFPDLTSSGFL
Test name: ATG_Ahr_CIS: Attagene CIS-FACTORIAL HepG2 Assay for human Aryl Hydrocarbon Receptor (Ahr) (AID 2282930)
Setup conditions: HepG2 AhR cis-factorial reporter transcription; actives raise or lower the signal
Active and inactive are the calls of the source. The calls were made as follows: active = hit-call score of the fitted dose curve at least 0.9, where 1 is the maximum; inactive = score below 0.9.
Assign a class; possible classes are YES for active, NO for inactive

CO/N=C(/C(=O)OC)c1ccccc1COc1ccccc1C    YES
O=C(O)C1C(C(=O)O)C2(Cl)C(Cl)=C(Cl)C1(Cl)C2(Cl)Cl (stereo not given)    NO
Nc1ccc2ccccc2c1    YES

Enquiry: Given CNC(=O)Oc1ccc(N(C)C)c(C)c1 , state the outcome it received in this test.
Return: NO

Enquiry: # outcome recorded in this test, key = Cc1ccc(O)cc1C
Return: NO

Enquiry: Could you please tell me the result logged for CCCCCCCc1ccc(O)cc1 in this assay?
Return: NO

Enquiry: Test call, this compound: CCCCN(CC)C(=O)SCCC
Return: NO

Enquiry: Please let me know the test result on file for CC(=O)CCc1ccc2c(c1)OCO2 .
Return: NO

----------
Test name: BSK_MyoF_SRB: Viability Assessment in the BioMAP Diversity Plus: MyoF Assay (AID 2284267);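 also: total protein by SRB absorbance in parallel cultures as cytotoxicity measure; cells assessed 24 h after compound addition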
Setup conditions: primary human lung fibroblasts
Activity calls are given as the source filed them. How the source made its calls: active means hit-call score of the fitted dose curve at least 0.9, where 1 is the maximum; inactive means score below 0.9.
Tick one outcome: 1.0 = active, 0.0 = inactive

Enquiry: Tell me the recorded outcome of this test for CC(C)(C)c1ccccc1OP(=O)(Oc1ccccc1)Oc1ccccc1 .
Return: 1.0

Enquiry: Identify the outcome logged in this assay for the compound shown: N#Cc1c(-c2ccc(Cl)cc2)[nH]c(C(F)(F)F)c1Br
Return: 1.0

Enquiry: State the result this test recorded for O=S(=O)(F)C(F)(F)C(F)(F)C(F)(F)C(F)(F)C(F)(F)C(F)(F)C(F)(F)C(F)(F)F .
Return: 0.0

Enquiry: Name the outcome recorded for CCOP(=S)(OCC)SCS(=O)(=O)CC in the assay.
Return: 0.0

Enquiry: Hello, I am checking results. What call was entered for O=S1(=O)OCC2C(CO1)C1(Cl)C(Cl)=C(Cl)C2(Cl)C1(Cl)Cl (stereo unspecified) ?
Return: 0.0

Enquiry: Please let me know the test result on file for O=C(O)C(F)(OC(F)(F)C(F)(F)C(F)(F)F)C(F)(F)F (stereo unspecified) .
Return: 0.0
